B1: tRNA (parent)
chain: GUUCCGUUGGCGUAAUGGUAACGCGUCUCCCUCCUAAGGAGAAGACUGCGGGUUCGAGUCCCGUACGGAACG

Variants of: B1
procedure_text: yeast fitness relative to wild type (ratio to wild type); higher = fitter; tRNA-Arg(CCU), competitive growth, 37 C, YPD
Fewer inactive variants are shown than the library holds.
Hi, to clarify the labels: rule met covers yeast fitness from 0.7 upward, rule not met covers anything below 0.7.

[[record]]
variant_name = "U7G G48A"
cat = "rule met"

[[record]]
variant_name = "A14G G23A A36G C66U"
cat = "rule not met"

[[record]]
variant_name = "U2A C5U G38A C55A"
cat = "rule not met"

[[record]]
variant_name = "G10C C55U G56A"
cat = "rule not met"

[[record]]
variant_name = "U3C C30A C31G C49A C60U G67A"
cat = "rule not met"

[[record]]
variant_name = "C5G C22A C33G U35A C55U"
cat = "rule not met"

[[record]]
variant_name = "U13A G68U"
cat = "rule met"

[[record]]
variant_name = "G38A C49U G51C"
cat = "rule not met"

[[record]]
variant_name = "U3C U28G A57C"
cat = "rule not met"

[[record]]
variant_name = "G17A U59C"
cat = "rule not met"

[[record]]
variant_name = "U13A C22G U32C A42C G48C C55G G63A G68C"
cat = "rule not met"

[[record]]
variant_name = "U3C G58A G68C"
cat = "rule not met"

[[record]]
variant_name = "U2A G18C"
cat = "rule not met"

[[record]]
variant_name = "G9C U13A G25A A40C G67C"
cat = "rule not met"

[[record]]
variant_name = "A14G G51A"
cat = "rule not met"

[[record]]
variant_name = "C4U A14G A70U"
cat = "rule met"

[[record]]
variant_name = "C27G G63A"
cat = "rule not met"

[[record]]
variant_name = "G12C C49U"
cat = "rule met"

[[record]]
variant_name = "C49A G56C G58C"
cat = "rule not met"

[[record]]
variant_name = "C27A U28A G41A G48A"
cat = "rule met"

[[record]]
variant_name = "A37G C55U"
cat = "rule not met"

[[record]]
variant_name = "G6A G17C G18C A45G G58C C66U"
cat = "rule not met"

[[record]]
variant_name = "G10A A37U A45G C46G C55A"
cat = "rule not met"

[[record]]
variant_name = "G23A C24U"
cat = "rule met"

[[record]]
variant_name = "C4G G67C"
cat = "rule met"

[[record]]
variant_name = "G9A G23C C30G A40U C46U"
cat = "rule not met"

[[record]]
variant_name = "C4A U32C A40U A69U"
cat = "rule not met"

[[record]]
variant_name = "C5U C11G A15U U32A U35G"
cat = "rule not met"

[[record]]
variant_name = "C46G A65G"
cat = "rule met"

[[record]]
variant_name = "C5A C11G G41C A57G"
cat = "rule not met"

[[record]]
variant_name = "C4A G38A G51A"
cat = "rule not met"

[[record]]
variant_name = "C5A A21U C61A C62G"
cat = "rule not met"

[[record]]
variant_name = "G25A G39C A57C"
cat = "rule not met"

[[record]]
variant_name = "C11G A20G C49G"
cat = "rule not met"

[[record]]
variant_name = "G6A A45C C46G G51C"
cat = "rule not met"

[[record]]
variant_name = "U8C U16C C61G A69C"
cat = "rule not met"

[[record]]
variant_name = "C31U A37G U47C G63A"
cat = "rule not met"

[[record]]
variant_name = "C31A C66G"
cat = "rule not met"

[[record]]
variant_name = "C4A U26G G44C G58A G68C"
cat = "rule not met"

[[record]]
variant_name = "G25C C27G C46G C55A"
cat = "rule not met"

[[record]]
variant_name = "A14G A45C G58A"
cat = "rule not met"

[[record]]
variant_name = "C5A U19G C31G U53A"
cat = "rule met"

[[record]]
variant_name = "C30A A37C G38C"
cat = "rule not met"

[[record]]
variant_name = "C5G A14C C29U C33G"
cat = "rule not met"

[[record]]
variant_name = "G25C C27G U47C"
cat = "rule not met"

